Each record here notes measured percent inhibition of viability.
Tested on: normal primary NK cells, pool 3 (3 donors) (IL-2 2.5 ng/mL)
assay info: percent inhibition of viability; higher = more inhibition;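 further: normalised to DMSO-only wells as negative and benzethonium chloride as positive control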
protocol conditions: 72 h; 100 nM
Give the value in % but do not write % after it.

Reference set, count: 2
[[record]]
compound = "Cc1ccc(-c2cc(C(F)(F)F)nn2-c2ccc(S(N)(=O)=O)cc2)cc1 [Celecoxib] (max concentration tested 10000 nM)"
measure_unit = "%"
value_measured = 9.55

[[record]]
compound = "CC[C@@H]1C(=O)N(C)c2cnc(Nc3ccc(C(=O)NC4CCN(C)CC4)cc3OC)nc2N1C1CCCC1 [BI 2536] (max concentration tested 1000 nM)"
measure_unit = "%"
value_measured = -2.57


Recorded result, COc1cc(OC2CCN(C)CC2)ccc1Nc1ncc2c(n1)n(C1CCCC1)c(=O)n2C [AZ 3146] (max concentration tested 10000 nM) , percent inhibition of viability: 2.52

Recorded result, COc1cc(N2CCC(N3CCN(C)CC3)CC2)ccc1Nc1ncnc(Nc2ccccc2S(=O)(=O)C(C)C)n1 [ASP3026] (max concentration tested 10000 nM) , percent inhibition of viability: 8.07

Recorded result, COc1c(C)cnc(Cn2cnc3c(Cl)nc(N)nc32)c1C [BIIB021] (max concentration tested 10000 nM) , percent inhibition of viability: 16.2

Recorded result, C#Cc1cccc(Nc2ncnc3cc(OC)c(OCCCCCCC(=O)NO)cc23)c1 [CUDC-101] (max concentration tested 10000 nM) , percent inhibition of viability: 2.2

* * *

Test system: NK-92 (IL-2 2.5 ng/mL)
assay info: percent inhibition of viability; higher = more inhibition
protocol conditions: 72 h; 10000 nM
endpoint: percent inhibition of viability (%)
Give the value in % but do not write % after it.

[[record]]
compound = "COc1cc2nccc(Oc3ccc(NC(=O)Nc4cc(C)on4)c(Cl)c3)c2cc1OC [Tivozanib] (max concentration tested 10000 nM)"
value_measured = 71

[[record]]
compound = "C=CCNC1=C2C[C@@H](C)C[C@H](OC)[C@H](O)[C@@H](C)/C=C(\\C)[C@H](OC(N)=O)[C@@H](OC)/C=C\\C=C(/C)C(=O)NC(=CC1=O)C2=O [Tanespimycin] (max concentration tested 10000 nM)"
value_measured = 100

[[record]]
compound = "CC1(C)CNc2cc(NC(=O)c3cccnc3NCc3ccncc3)ccc21 [Motesanib] (max concentration tested 10000 nM)"
value_measured = 17.9


Recorded result, Cn1cc(-c2ccc3nnc(C(F)(F)c4ccc5ncccc5c4)n3n2)cn1 (max concentration tested 10000 nM) , percent inhibition of viability: 16.7

* * *

Test system: normal primary NK cells, pool 1 (3 donors) (IL-2 2.5 ng/mL)
assay info: percent inhibition of viability; higher = more inhibition
protocol conditions: 72 h; 10000 nM
Please note: percent inhibition of viability exactly at 90% is 0.0. Only values below 90% get 1.0.

Reference set (4 entries):
[[record]]
compound = "CNC(=O)c1ccc(N2C(=S)N(c3cnc(C#N)c(C(F)(F)F)c3)C(=O)C23CCC3)cc1F [ARN 509] (max concentration tested 10000 nM)"
assigned_label = 1.0

[[record]]
compound = "COc1cc(C(=O)O)ccc1NC(=O)[C@@H]1N[C@@H](CC(C)(C)C)[C@](C#N)(c2ccc(Cl)cc2F)[C@H]1c1cccc(Cl)c1F [RG7388] (max concentration tested 10000 nM)"
assigned_label = 0.0

[[record]]
compound = "O=C(O)CCCCC(CCSCc1ccccc1)SCc1ccccc1 (stereo unspecified) [CPI-613] (max concentration tested 10000 nM)"
assigned_label = 1.0

[[record]]
compound = "COCC(=O)NC/C=C/c1ccc2ncnc(Nc3ccc(Oc4ccc(C)nc4)c(C)c3)c2c1 (max concentration tested 10000 nM)"
assigned_label = 1.0


Here's the next entry for you.
QUERY: Is percent inhibition of viability strictly under 90% for the entry COc1cc2c(NC3CCN(C(C)C)CC3)nc(N3CCC(F)(F)CC3)nc2cc1OCCCN1CCCC1 [UNC0642] (max concentration tested 10000 nM) ?
RESULT: 0.0
